Sourced from the supplement of paper PMC8728848

Target: Fuc(a1-2)[Gal(a1-3)]Gal(b1-4)GlcNAc(b1-2)Man(a1-3)[Fuc(a1-2)[Gal(a1-3)]Gal(b1-4)GlcNAc(b1-2)Man(a1-6)]Man(b1-4)GlcNAc(b1-4)[Fuc(a1-6)]GlcNAc
Assay: glycan array binding signal (z-score within array); higher = stronger binding
Conditions: glycan notation: IUPAC condensed, linker removed
The sample as a whole holds a higher share of the strongest signals than the screen did.
Please go through the items and note down their glycan array binding signal (z-score).

Task: Query: glycan array binding signal (z-score); subject: SP15308B-bot-339-22-339 (Bacteroides ovatus) (protein) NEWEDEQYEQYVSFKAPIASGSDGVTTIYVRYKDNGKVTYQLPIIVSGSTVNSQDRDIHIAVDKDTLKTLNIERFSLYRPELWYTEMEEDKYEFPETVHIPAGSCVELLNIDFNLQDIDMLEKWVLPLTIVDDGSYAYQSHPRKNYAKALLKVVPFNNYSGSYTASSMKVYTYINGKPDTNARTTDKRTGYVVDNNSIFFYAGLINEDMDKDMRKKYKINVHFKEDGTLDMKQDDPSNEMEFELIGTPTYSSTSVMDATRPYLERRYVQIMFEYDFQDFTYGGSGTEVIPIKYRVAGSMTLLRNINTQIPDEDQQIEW
Result: 0.241

Task: # get_value(readout='glycan array binding signal (z-score)', item= Gal 8 (Mus musculus), Q9JL15 (protein) MGGSHHHHHHGMASMLSLNNLQNIIYNPIIPYVGTITEQLKPGSLIVIRGHVPKDSERFQVDFQLGNSLKPRADVAFHFNPRFKRSSCIVCNTLTQEKWGWEEITYDMPFRKEKSFEIVFMVLKNKFQVAVNGRHVLLYAHRISPEQIDTVGIYGKVNIHSIGFRFSSASALPHTLGDLQSMETSALGLTQINRENIQKPGKLQLSLPFEARLNASMGPGRTVVIKGEVNTNARSFNVDLVAGKTRDIALHLNPRLNVKAFVRNSFLQDAWGEEERNITCFPFSSGMYFEMIIYCDVREFKVAINGVHSLEYKHRFKDLSSIDTLSVDGDIRLLDVRSW )
Result: 3.64

Task: // query glycan array binding signal (z-score) value for entry AT3G44510(29) (Arabidopsis thaliana), F4J341 (protein) MEEHLQGRIKLHDGRYLAYKERGVPKDDAKFTIVLVHGFGSSKDMNFNVSQELVNEIGIYFVLYDRAGYGESDPNPKRSLKSEAYDVQELADGLEIGSRFYLIGISMGSYTVWSCLKHIPQRLAGVAMVAPVVNFRWPSIPKSLMPKDYRREVAKWSVWIANYFPGLLQWLVTQNMFSTTSMLEKNPVYFNDQDIEVLKHIKGFPMLTKEKLRERGVFGTLRSDFLVAFGDWDFDPADLPDPSLSGPEKGSSSVHIWQGYEDKVMPFQLQRCLCRKLPWIRYHEVPKGGHLIVHYDGICDAILKSLLLGEDLPMYKPKAVITEPA
Result: -0.079

Task: Query: glycan array binding signal (z-score); subject: Mincle (Bos taurus) (protein) MNSSTSPASQTERRCFSFQLFSWAIAGTSILLLSACFITRCVVTYSIFQLCDEKKFQPPGDSMELSCYNDGSGSVKNCCPLKWFHFQSSCYLFSPDTMSWRASLKNCSSMGAHLVVINTQEEQEFLYYTKPRKKEFYIGLTDQVTEGQWQWVDGTPFTKSLSFWDAGEPNNLVIVEDCATIRDSSNPRQNWNDVPCFFNMFRVCEMPERKI
Result: -0.601

Task: Can you share its glycan array binding signal (z-score)? I mean this binder: EEA (Euonymus europaeus) (protein) MASTIIATGPTYRVYCRAAPNYNMIVGKGVAFLAPIDETNELQYWYKDDTYSYIKDEAGLPAFSLVNKATGLTLKHSNHHPVPVKLVTYNPNVVDESVLWSQADDRGDGYSAIRSLTNPASHLEAAPLNDWSYNGAIIMGGVWIDAYNQQWKIEPHTG
Result: 5.12
